molecular target: human PD-1 / human PD-L1 (Homo sapiens, UniProt Q15116+Q9NZQ7); test: AlphaScreen PD-1-PD-L1 binding assay; conditions: unrelated ligand-receptor pair
Sequence (Q15116 25-167 limits assumed): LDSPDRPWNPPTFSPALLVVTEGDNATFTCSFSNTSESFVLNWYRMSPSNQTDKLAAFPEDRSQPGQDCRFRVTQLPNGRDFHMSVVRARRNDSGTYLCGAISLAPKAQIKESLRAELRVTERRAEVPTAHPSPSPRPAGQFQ
Sequence (Q9NZQ7 19-239 limits assumed): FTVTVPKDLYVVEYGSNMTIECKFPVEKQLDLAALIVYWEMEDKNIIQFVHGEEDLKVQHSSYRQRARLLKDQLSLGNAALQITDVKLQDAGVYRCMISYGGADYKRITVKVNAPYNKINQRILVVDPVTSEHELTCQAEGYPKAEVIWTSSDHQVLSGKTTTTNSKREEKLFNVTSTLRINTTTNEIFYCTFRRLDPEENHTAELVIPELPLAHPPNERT
pIC50: −log10 of the molar value.

{"SMILES_RECORD": "O=C1Nc2ccc(Cl)cc2C1=NNc1ccc([N+](=O)[O-])cc1[N+](=O)[O-]", "pIC50": 5.69}

====

target: SARS-CoV-2 Spike-RBD (lambda) / ACE2 (Homo sapiens, UniProt Q9BYF1); construct: a SARS-CoV-2 RBD protein containing a C-terminal His tag; a full-length ACE2 peptide with a C-terminal Fc tag; purchased Sino Biological; assay: biochemical; type: binding
Sequence (Q9BYF1 18-740): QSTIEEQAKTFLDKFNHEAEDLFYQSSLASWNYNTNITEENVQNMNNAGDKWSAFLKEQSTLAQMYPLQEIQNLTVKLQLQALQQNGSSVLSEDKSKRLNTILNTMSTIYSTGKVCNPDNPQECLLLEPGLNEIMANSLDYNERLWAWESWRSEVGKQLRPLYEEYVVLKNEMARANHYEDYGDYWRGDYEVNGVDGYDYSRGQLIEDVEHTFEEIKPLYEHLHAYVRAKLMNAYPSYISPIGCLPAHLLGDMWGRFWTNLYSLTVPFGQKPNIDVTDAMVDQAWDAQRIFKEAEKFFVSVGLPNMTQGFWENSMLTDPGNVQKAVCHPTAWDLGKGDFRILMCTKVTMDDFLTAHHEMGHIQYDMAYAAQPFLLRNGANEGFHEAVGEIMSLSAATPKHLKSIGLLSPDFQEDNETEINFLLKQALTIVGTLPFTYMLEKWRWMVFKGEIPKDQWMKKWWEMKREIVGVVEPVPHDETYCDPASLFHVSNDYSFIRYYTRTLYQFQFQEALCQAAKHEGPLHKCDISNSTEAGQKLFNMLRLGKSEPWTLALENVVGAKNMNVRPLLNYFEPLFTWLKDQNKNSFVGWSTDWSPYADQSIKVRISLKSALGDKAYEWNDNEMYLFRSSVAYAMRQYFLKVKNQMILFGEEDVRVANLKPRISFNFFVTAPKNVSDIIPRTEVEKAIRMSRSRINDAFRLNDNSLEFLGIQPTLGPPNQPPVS

{"COMPOUND": "O=C1Nc2ccc(Cl)cc2C1=NNc1ccc([N+](=O)[O-])cc1[N+](=O)[O-] [H2L]", "UOM": "nM", "IC50": 628}
